Test system: GSK3B
Conditions: concentration: 1 μM, replicates: in singlicate; n = 1
Below, each of the molecules is paired with its reported %Inh value.
The answer consists of two parts: a number and, after it, its unit.

These solved cases illustrate the format of a correct answer.
In [3]: df
Out[3]:
                                   molecule  recorded_result
0  O=C(NCCCN1CCCC1=O)c1cnc(NCc2cc(Cl)ccc2Cl)nc1NC1CCNCC1               0%
1  Fc1ccc(Nc2nccc(-c3c(-c4ccc(Cl)cc4)nn4ncccc34)n2)cc1F              31%
2  Nc1nc(-c2ccc3c(N)n[nH]c3c2)cc(N2CCCCC2)n1               0%
3  COc1ccc(NC(=O)c2ccc(-c3cc(-c4nnc(C)o4)ccc3C)cc2)cc1               0%
4  CCc1nc(-c2cccc(C)c2)c(-c2ccnc(NC(=O)c3ccccc3)c2)s1               0%

Lookup: Param readout= %Inh; system= GSK3B; entry= `CCC(CC)(CC)n1cnc2c(N)ncnc21` ; returns value.
Found: 35%

Lookup: Param readout= %Inh; system= GSK3B; entry= `CNc1nccc(-c2c(-c3ccc(F)cc3)ncn2C2CCN(C)CC2)n1` ; returns value.
Found: 0%

Lookup: Param readout= %Inh; system= GSK3B; entry= `Nc1nc(-c2cccnc2)c(-c2ccnc3ccccc23)s1` ; returns value.
Found: 7%

Lookup: Param readout= %Inh; system= GSK3B; entry= `CCn1c(-c2ccncc2)nc2cnccc21` ; returns value.
Found: 30%

Lookup: Param readout= %Inh; system= GSK3B; entry= `N#Cc1ccc(Oc2ccc(Nc3ncnc4cc[nH]c34)cc2Cl)cc1` ; returns value.
Found: 0%

Lookup: Param readout= %Inh; system= GSK3B; entry= `Cl.Cl.c1ccc(-c2cc3ccncc3cc2OC2CCNCC2)cc1` ; returns value.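 Note: KINOMEscan kinase panel screen.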
Found: 18%
